# ED50 annotations
Test system: Proteus mirabilis 774
test summary: Chemotherapeutic activity in vivo against systemic infection in mice (ED50)
Design: species or system weiblichen SPF, MF2 Mäusen
measurement parameters: po
readout name: ED50 (mg/kg)

# structure string, system name, readout name, readout units, test result
rows = [
    ("COC1=C(C(=O)O)N2C(=O)[C@@H](NC(=O)[C@H](N)c3ccc(O)c(NS(C)(=O)=O)c3)[C@H]2SC1", "Proteus mirabilis 774", "ED50", "mg/kg", 22),
    ("CS(=O)(=O)Nc1cc([C@@H](N)C(=O)N[C@@H]2C(=O)N3C(C(=O)O)=CCS[C@H]23)ccc1O", "Proteus mirabilis 774", "ED50", "mg/kg", 22),
    ("CS(=O)(=O)Nc1cc([C@@H](N)C(=O)N[C@@H]2C(=O)N3C(C(=O)O)=C(Cl)CS[C@H]23)ccc1O", "Proteus mirabilis 774", "ED50", "mg/kg", 4),
    ("CCS(=O)(=O)Nc1cc([C@@H](N)C(=O)N[C@@H]2C(=O)N3C(C(=O)O)=CCS[C@H]23)ccc1O", "Proteus mirabilis 774", "ED50", "mg/kg", 30),
    ("CCS(=O)(=O)Nc1cc([C@@H](N)C(=O)N[C@@H]2C(=O)N3C(C(=O)O)=C(Cl)CS[C@H]23)ccc1O", "Proteus mirabilis 774", "ED50", "mg/kg", 30),
    ("CCS(=O)(=O)Nc1cc([C@@H](N)C(=O)N[C@@H]2C(=O)N3C(C(=O)O)=C(OC)CS[C@H]23)ccc1O", "Proteus mirabilis 774", "ED50", "mg/kg", 30),
]
